Provenance of the data: patent US7026343B2

Each item that follows carries a reported % of cells in S.
Test system: Rat1a-c-Myc cells
ASSAY PROTOCOL: Cell cycle profiles by propidium iodide flow cytometry
Format: cell-based, rat
SETTINGS: 24 h, concentrations of FIG. 4
ASSAY READOUT: % of cells in S

compound="CCCOc1ccc(N2C(=O)CC(N3CCC(C(=O)O)CC3)C2=O)cc1 (stereo not shown) [#10031]" study_system="Rat1a-c-Myc cells" measured=33.9%
compound="CCN(CC)C1CC(=O)N(c2cccc(Cl)c2)C1=O (stereo not shown) [#10075]" study_system="Rat1a-c-Myc cells" measured=24.2%
compound="O=[N+]([O-])c1ccc(Nc2ccccc2-c2ccccc2)c2nonc12 [#10074G4]" study_system="Rat1a-c-Myc cells" measured=38.7%
compound="Cc1ccc2c(c1)C(=NNc1nc(C)c(C(=O)Nc3cccc([N+](=O)[O-])c3)s1)CC(c1ccccc1)O2 (stereo not shown) [#10050]" study_system="Rat1a-c-Myc cells" measured=29.6%
compound="CCc1ccc(C=C2SC(=S)NC2=O)cc1 [#10058]" study_system="Rat1a-c-Myc cells" measured=23.7%
compound="O=C1CSC(=O)N1CC(O)Cn1c2ccc(Cl)cc2c2cc(Cl)ccc21 (stereo not shown) [#10074A4]" study_system="Rat1a-c-Myc cells" measured=21.5%
compound="O=[N+]([O-])c1ccc(CCNC2CC3CCC2C3)cc1 (stereo not shown) [#10009]" study_system="Rat1a-c-Myc cells" measured=23.1%
